# maps each entry to its IC50
Tested on: Tubulin (Sus scrofa, UniProt P02554+P02550)
Experiment description: Concentration of compound required to inhibit tubulin polymerization (Microtubule assembly) was determined by the turbidity formation after 20 min of incubation
Assay type: functional

Would you please look over these solved cases?
Cc1c(/C=C/CN2CCN(c3cc(F)cc(F)c3)CC2)cnn1-c1nccc(N)n1.Cl; 11.05 µM
Cc1c(/C=C/CN2CCN(c3cc(F)cc(F)c3)CC2)cnn1-c1ccnc(N)n1.Cl; 3.72 µM

For the molecule shown here, "Cc1c(/C=C/CN2CCN(c3cccc(Cl)c3)CC2)cnn1-c1ncccn1.Cl" , give the reported IC50. 35.96 µM

For the molecule shown here, "Cc1c(/C=C/CN2CCN(c3cc(F)cc(F)c3)CC2)cnn1-c1ncccn1.Cl" , give the reported IC50. 9.08 µM

Source: ChEMBL document CHEMBL1135557
